Measured values drawn from patent EP2601188B1 for this set.

# System: HCV 1b genotype
# Protocol Text: HCV Replicon assay (HCV-neo replicon cells, wild-type)
# Assay type: cell-based
# Details: Hepatitis C virus; HCV 1b genotype replicon; values in nM; read-out: EC50
Label True when EC50 is strictly below 60 nM; otherwise label False.

# Compound, Subject Of Test, Label Value
measured = [
    ("CCN(CC)[C@@H](C(=O)N1CCC[C@H]1c1nc2cc(C#Cc3cccc(-c4[nH]cnc4[C@@H]4CCCN4C(=O)[C@@H](c4ccccc4)N(CC)CC)c3)ccc2[nH]1)c1ccccc1 [J.28m]", "HCV 1b genotype", "True"),
]

Query string: Quick check: does COc1cccc2c(C(=O)N3CCC[C@H]3C(=O)Nc3cccc(-c4ncc(-c5ccc6[nH]c([C@@H]7CCCN7C(=O)c7nc(Cl)cc8c(OC)cccc78)nc6c5)o4)c3)nc(Cl)cc12 [J.48d] have EC50 under 60 nM?
Result string: False

Query string: Next compound: CC(=O)N1CCC[C@H]1C(=O)Nc1ccc(C#Cc2ccc3nc([C@@H]4CCCN4C(=O)Cc4ccccc4)[nH]c3c2)cc1
Result string: True

Query string: Next compound: COC(=O)NC(C(=O)N1[C@@H](C)CC[C@H]1c1nc2ccc3cc(C#Cc4ccc5[nH]c([C@@H]6CC[C@H](C)N6C(=O)[C@@H](NC(=O)OC)C(C)C)nc5c4)ccc3c2[nH]1)C1CCOCC1 (stereo partly drawn) [J.28i.4a]
Result string: True

Query string: Next compound: CC(=O)N1CCC[C@H]1C(=O)Nc1ccc(CCc2ccc3nc([C@@H]4CCCN4C(=O)Cc4ccccc4)[nH]c3c2)cc1
Result string: False

Query string: Next compound: COC(=O)N[C@H](C(=O)N1CCC[C@H]1c1nc[nH]c1-c1cccc(C#Cc2ccc3[nH]c([C@@H]4CCCN4C(=O)[C@H](NC(=O)OC)C(C)C)nc3c2)c1)C(C)C (stereo in doubt)
Result string: True
